Across several publications, the following Ki results were reported for HPK1 (Homo sapiens (Human)).

Here's what some known entries look like.
COCc1c(Cl)[nH]c2ncc(-c3ccc(N)c(C(=O)N(C)C)c3F)cc12 | 160 nM
CN1CCN(c2ncc(-c3n[nH]c4cnc(-c5c(F)cc(CC#N)cc5F)nc34)cn2)CC1 | ≤ 100 nM

Lab note: next molecule to report on.
Prompt: Hello, I am looking for reported Ki with HPK1 (Homo sapiens (Human)) for `CN1CCN(c2ccc(-c3n[nH]c4cnc(-c5ccc6cccnc6c5F)nc34)cc2)CC1` . Could you help?
Response: ≤ 100 nM

====

Values of Ki for HPK1 (Homo sapiens (Human)), collected from a number of published sources:

CN1CCN(c2ccc(-c3n[nH]c4cc(=O)n(-c5cccc6c5OCCO6)cc34)cc2)CC1 | ≤ 100 nM
CNCc1ccc(F)c(-c2cc3c(-c4cnn(C)c4)n[nH]c3cn2)c1C | ≤ 100 nM
CNCc1cc(F)c(-c2ncc3[nH]nc(-c4cnn(C)c4)c3n2)c(F)c1 | ≤ 100 nM
CN(C)C(=O)c1cc(-c2cnc3[nH]c(Cl)c(CCO)c3c2Cl)ccc1N | 9.4 nM
CN(C)C(=O)c1c(N)ccc(-c2cnc3c(c2Cl)C2(CCC(=CC(N)=O)C2)CN3)c1F (centres unmarked) | 4.5 nM

Prompt: Item `COc1cccc(F)c1-c1cc2c(NC(=O)c3ccn(C)n3)n[nH]c2cn1` with HPK1 (Homo sapiens (Human)) - Ki?
Response: ≤ 100 nM

Prompt: Missing value: Ki, HPK1 (Homo sapiens (Human)), entry CN(C)C(=O)c1c(N)ccc(-c2cnc3c(c2)C2(CN3)C3COCC32)c1F (centres unmarked) . Fill in?
Response: 446 nM

Prompt: Lab note: need Ki with HPK1 (Homo sapiens (Human)) for entry `COc1cccc(F)c1-c1nccc(C(=O)Nc2cc(C#N)c3sc(C)nc3c2N2CC[C@H](N)C2)n1` , please look it up.
Response: < 100 nM

====

Several publications report pKi on HPK1 (Homo sapiens (Human), UniProt Q92918); those values are gathered here.
pKi: −log10 of the molar value.

# count of solved cases: 5
Cc1c(CN2CC(C)(C)C2)ccc(F)c1-c1cc2c(-c3cnn(C)c3)n[nH]c2cn1 | ≥ 7.00
CN1CCN(c2ccc(-c3n[nH]c4ccc(-c5ccccc5F)nc34)cc2)CC1 | ≥ 7.00
COc1cccc(F)c1-c1nccc(C(=O)Nc2cc(F)c3c(cnn3C)c2N2CC(N)C2)n1 | > 7.00
CNCc1cc(C)c(-c2cc3c(-c4cnn(CC(F)(F)F)c4)n[nH]c3cc2C#N)c(F)c1 | ≥ 7.00
Cn1cc(-c2n[nH]c3cnc(-c4c(F)cc5c(c4F)C(O)CC5)cc23)cn1 (stereo not drawn) | ≥ 7.00

Prompt: // query pKi value for entry CN1CCN(c2ccc(-c3n[nH]c4cc(=O)n(C5CCN(C)C5=O)cc34)cc2)CC1 (stereo not drawn)
Response: 5.52 to 6.30

Prompt: Return reported pKi; argument: CC(C)NC1CC(c2cc(F)c(-c3cc4c(-c5cnn(C)c5)n[nH]c4cn3)c(F)c2)C1 (stereo not drawn)
Response: ≥ 7.00

Prompt: # get_value(readout='pKi', item= `COc1cccc(F)c1-c1cc2c(-c3cccc(C4CCN(C)CC4)n3)n[nH]c2cn1` )
Response: ≥ 7.00

Prompt: Would you kindly share the measured pKi for `COc1cccc(F)c1-c1cc2c(N3CCN(c4ccc(C#N)cc4)CC3)n[nH]c2cn1` ?
Response: ≥ 7.00

Prompt: Using the record for `Cc1cc(CNCC(F)(F)F)cc(F)c1-c1cc2c(-c3cnn(C)c3)n[nH]c2cn1` , report its pKi.
Response: ≥ 7.00

Prompt: // returns reported pKi for input `CN(C)C(=O)C1(c2cccc(-c3cnc4c(c3Cl)C3(CC=CC3)CN4)c2)CC1`
Response: 6.55

Prompt: Tell me the measured pKi of CNC(=O)c1ccc(-c2n[nH]c3cnc(-c4c(C)cc(C5CCCN5)cc4F)cc23)cc1 (stereo not drawn) , please.
Response: ≥ 7.00
